Reference source: paper PMC8318231

system: T. cruzi Tulahuen trypomastigotes; assay: T. cruzi trypomastigote assay (Cell Titer-Glo viability, ATP luminescence); format: cell-based, Trypanosoma cruzi; conditions: trypomastigote assay, 48 h; figure 1A
Hi there, I'd appreciate the recorded 48 pIC50 for every entry that follows.

Which value of 48 pIC50 has been reported for CCn1nccc1CN(C)C(=O)C=Cc1ccc(Cl)cc1 in the records?
< 4.3

Which value of 48 pIC50 has been reported for O=c1[nH]ccc2ccc(-c3ccncc3)cc12 in the records?
< 4.3

Which value of 48 pIC50 has been reported for O=C(NC(c1ccc(Cl)cc1)c1cnccn1)C1CCN(C(=O)Nc2cccc(C(F)(F)F)c2)CC1 (stereo not drawn) in the records?
< 4.3

Which value of 48 pIC50 has been reported for Cc1ccc(CNC2CCN(C[C@@H]3Cn4c(=O)ccc5ccc(=O)n3c54)CC2)cc1F in the records?
< 4.3

Which value of 48 pIC50 has been reported for O=C(C1CCCCC1)N1CCN(c2nnc(-c3ccccc3)c3ccccc23)CC1 in the records?
< 4.3

Which value of 48 pIC50 has been reported for N#Cc1cc([N+](=O)[O-])ccc1NC1CCCCCC1 in the records?
< 4.3

Which value of 48 pIC50 has been reported for O=C(NCCc1cccnc1)c1ccc(-c2ccccc2F)o1 in the records?
< 4.3

Which value of 48 pIC50 has been reported for CNc1c(C(N)=O)c(-c2ccc3scnc3c2)nn1CC(F)(F)F.O=C(O)C(F)(F)F in the records?
< 4.3

Which value of 48 pIC50 has been reported for O=S(=O)(NCC(c1cccnc1)N1CCN(c2ccccc2F)CC1)c1ccc(F)cc1 (stereo not drawn) in the records?
< 4.3

Which value of 48 pIC50 has been reported for CN(C)Cc1ccc(-c2ccc(S(=O)(=O)NCC3CCCO3)c(F)c2)cc1.O=C(O)C(F)(F)F (stereo not drawn) in the records?
< 4.2

Which value of 48 pIC50 has been reported for O=C(Nc1cccc(F)c1)N1CCC(Oc2cccc(-c3cccnc3)c2)CC1 in the records?
< 4.3

Which value of 48 pIC50 has been reported for COc1ccc(-c2ccc3nnc(-c4ccc(O)c(OC)c4)n3c2)cn1 in the records?
< 4.3

Which value of 48 pIC50 has been reported for Cl.Cl.NC(=O)c1ccc(-c2cccc(OCCN3CCN(C4CCCCC4)CC3)c2)cc1 in the records?
< 4.3

Which value of 48 pIC50 has been reported for Cc1c(C(=O)NCCCCn2ccnc2)oc2c(C)cccc12 in the records?
< 4.3

Which value of 48 pIC50 has been reported for O=C(Nc1cccc(Cl)c1)N1CCCCC1c1cccnc1 (stereo not drawn) in the records?
< 4.3

Which value of 48 pIC50 has been reported for Cc1[nH]nc2c1C(c1ccc(OCc3ccccc3F)cc1)SCC(=O)N2 (stereo not drawn) in the records?
5.1

Which value of 48 pIC50 has been reported for CN1CCCN(C(=O)c2ccc(N3CCCC3)cc2Cl)CC1 in the records?
< 4.3

Which value of 48 pIC50 has been reported for Cn1cncc1CN1CCC2(CC1)COC(Cc1ccccc1)C2 (stereo not drawn) in the records?
< 4.3

---

test system: T. cruzi intracellular amastigotes in H9c2 cells; assay: Rate-of-Kill (RoK) high-content imaging assay, amastigotes per cell (AM/CELL) and curve descriptors; type: cell-based, Trypanosoma cruzi; conditions: maximum effect at 72 h, RoK assay
Hi there, I'd appreciate the recorded ME_72h (%) for every entry that follows.
Write it as a number; the unit % goes unstated.

Entry Cc1ccc(C)c(OC2CCN(C(=O)C(C)n3ccnc3)CC2)c1 (centres unmarked) , system T. cruzi intracellular amastigotes in H9c2 cells: what ME_72h (%) was measured?
55.4

Entry O=c1[nH]cnc2c([C@@H]3O[C@H](CO)[C@@H](O)[C@H]3O)n[nH]c12 , system T. cruzi intracellular amastigotes in H9c2 cells: what ME_72h (%) was measured?
83.4

Entry COc1ccc(S(=O)(=O)Nc2ccccc2OC)cc1NC(=O)CCCc1c[nH]c2ccccc12 , system T. cruzi intracellular amastigotes in H9c2 cells: what ME_72h (%) was measured?
75.4

Entry Cc1c(C(C)NC(=O)Nc2cccc(Cl)c2)sc2ncnn12 (centres unmarked) , system T. cruzi intracellular amastigotes in H9c2 cells: what ME_72h (%) was measured?
41.1

Entry COc1ccccc1-c1c(C)[nH]c2nc(N)nc(C)c12 , system T. cruzi intracellular amastigotes in H9c2 cells: what ME_72h (%) was measured?
70.3

Entry O=C(NCCc1cccnc1)c1ccc(-c2ccccc2F)o1 , system T. cruzi intracellular amastigotes in H9c2 cells: what ME_72h (%) was measured?
47.7

Entry O=C(O)C(F)(F)F.O=c1ccc2ccc(F)c3c2n1C[C@H]3CN1CCC(NCc2cc3ccccc3o2)CC1 , system T. cruzi intracellular amastigotes in H9c2 cells: what ME_72h (%) was measured?
49.5

Entry c1ccc(CCNCc2cncc3nc(-c4cnccn4)n(C4CCCCC4)c23)cc1 , system T. cruzi intracellular amastigotes in H9c2 cells: what ME_72h (%) was measured?
17.3
